Provide the recorded kon for the entries that follow.
- target: T1, human CD73 (huCD73) protein, antigen of the Biacore assay (human, UniProt P21589 27-547, limits assumed)
- T1 construct: also called human CD73 antigen
- T1 sequence (looked up): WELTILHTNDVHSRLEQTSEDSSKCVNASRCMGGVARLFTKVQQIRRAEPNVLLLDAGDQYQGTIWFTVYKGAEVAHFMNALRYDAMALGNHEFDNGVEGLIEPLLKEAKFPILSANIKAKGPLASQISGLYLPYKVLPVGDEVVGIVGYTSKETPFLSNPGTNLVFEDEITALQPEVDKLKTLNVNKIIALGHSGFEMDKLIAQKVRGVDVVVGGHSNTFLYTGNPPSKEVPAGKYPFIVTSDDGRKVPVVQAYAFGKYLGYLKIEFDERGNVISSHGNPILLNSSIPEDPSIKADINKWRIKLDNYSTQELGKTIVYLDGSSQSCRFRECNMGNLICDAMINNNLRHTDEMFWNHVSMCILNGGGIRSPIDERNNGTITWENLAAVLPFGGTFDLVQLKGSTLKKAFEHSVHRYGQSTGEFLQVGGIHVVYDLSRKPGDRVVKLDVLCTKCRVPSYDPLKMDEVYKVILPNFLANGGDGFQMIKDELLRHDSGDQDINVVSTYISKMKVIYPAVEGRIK
- assay procedure: SPR Biacore T200; antibody captured on Protein A chip, CD73 in flow; 1:1 Langmuir
- Text: In this experiment, Biacore instrument was used to determine the affinity of the humanized anti-CD73 antibodies to be tested with human CD73 (huCD73) and monkey CD73 (cynoCD73). A certain amount of test antibody was affinity-captured with Protein A biosensing chip (Cat. #29127556, GE), and then a certain concentration of human or monkey CD73 antigen was allowed to flow through the surface of the chip. […]
Put down the number, then write its unit next to it.

>  <binder>
Hab108.52 (antibody, V domains shown, VL5 + VH2; full-length antibody) VH: EVTLKESGPVLVKPTETLTLTCTVSGFSLSSYGIQWIRQPPGKLLEWLAVIWSGGSADYNAAFISRLTISKDTSKSQVVLTMTNMDPVDTATYYCAGQYGSVWGQGTLVTVSS VL: DIQMTQSPSSLSASVGDRVTITCRASQDIGDRLNWLQQKPGKAIKRLIYATSSLDSGVPKRFSGSGSGTEYTLTISSLQPEDFATYYCLQYAGSWTFGGGTKVEIK

>  <kon>
260000 M⁻¹ s⁻¹

$$$$

Continue with the next binder.
Query block: Given the entry Hab110.23 (antibody, V domains shown, VL2 + VH3; recombined with human heavy and light constant regions) VH: EVQLVQSGAEVKKPGASVKVSCKASGYTFTSYTMHWVRQAPGQRLEWIGYINPNSFYIEYNQKFKDRATLTADTSASTAYMELSSLRSEDTAVYYCARGDYDLFYDMDNWGQGTTVTVSS VL: DIQMTQSPSSLSASVGDRVTITCRASQDIGNSLNWLQQKPGKAIKRLIYATFRLDSGVPSRFSGSRSGTEYTLTISSLQPEDFATYYCQQYASFPWTFGGGTKVEIK , report its measured kon.
Result block: 327000 M⁻¹ s⁻¹
